assay: Stability in rat plasma assessed as half life
Type: ADME, cell-free
experimental-endpoint: half-life

1. COc1ccc(C(=O)N2CCC3(CCN(C(=O)CN4CCC(COc5cnc(-c6cccc(Cn7nc(-c8cccc(C#N)c8)ccc7=O)c6)nc5)CC4)CC3)CC2)cc1N1CCC(=O)NC1=O    > 2 h

* * *

assayed-system: Protein cereblon/Hepatocyte growth factor receptor (Homo sapiens, UniProt P08581+Q96SW2)
Sequence (P08581 25-1390 limits assumed): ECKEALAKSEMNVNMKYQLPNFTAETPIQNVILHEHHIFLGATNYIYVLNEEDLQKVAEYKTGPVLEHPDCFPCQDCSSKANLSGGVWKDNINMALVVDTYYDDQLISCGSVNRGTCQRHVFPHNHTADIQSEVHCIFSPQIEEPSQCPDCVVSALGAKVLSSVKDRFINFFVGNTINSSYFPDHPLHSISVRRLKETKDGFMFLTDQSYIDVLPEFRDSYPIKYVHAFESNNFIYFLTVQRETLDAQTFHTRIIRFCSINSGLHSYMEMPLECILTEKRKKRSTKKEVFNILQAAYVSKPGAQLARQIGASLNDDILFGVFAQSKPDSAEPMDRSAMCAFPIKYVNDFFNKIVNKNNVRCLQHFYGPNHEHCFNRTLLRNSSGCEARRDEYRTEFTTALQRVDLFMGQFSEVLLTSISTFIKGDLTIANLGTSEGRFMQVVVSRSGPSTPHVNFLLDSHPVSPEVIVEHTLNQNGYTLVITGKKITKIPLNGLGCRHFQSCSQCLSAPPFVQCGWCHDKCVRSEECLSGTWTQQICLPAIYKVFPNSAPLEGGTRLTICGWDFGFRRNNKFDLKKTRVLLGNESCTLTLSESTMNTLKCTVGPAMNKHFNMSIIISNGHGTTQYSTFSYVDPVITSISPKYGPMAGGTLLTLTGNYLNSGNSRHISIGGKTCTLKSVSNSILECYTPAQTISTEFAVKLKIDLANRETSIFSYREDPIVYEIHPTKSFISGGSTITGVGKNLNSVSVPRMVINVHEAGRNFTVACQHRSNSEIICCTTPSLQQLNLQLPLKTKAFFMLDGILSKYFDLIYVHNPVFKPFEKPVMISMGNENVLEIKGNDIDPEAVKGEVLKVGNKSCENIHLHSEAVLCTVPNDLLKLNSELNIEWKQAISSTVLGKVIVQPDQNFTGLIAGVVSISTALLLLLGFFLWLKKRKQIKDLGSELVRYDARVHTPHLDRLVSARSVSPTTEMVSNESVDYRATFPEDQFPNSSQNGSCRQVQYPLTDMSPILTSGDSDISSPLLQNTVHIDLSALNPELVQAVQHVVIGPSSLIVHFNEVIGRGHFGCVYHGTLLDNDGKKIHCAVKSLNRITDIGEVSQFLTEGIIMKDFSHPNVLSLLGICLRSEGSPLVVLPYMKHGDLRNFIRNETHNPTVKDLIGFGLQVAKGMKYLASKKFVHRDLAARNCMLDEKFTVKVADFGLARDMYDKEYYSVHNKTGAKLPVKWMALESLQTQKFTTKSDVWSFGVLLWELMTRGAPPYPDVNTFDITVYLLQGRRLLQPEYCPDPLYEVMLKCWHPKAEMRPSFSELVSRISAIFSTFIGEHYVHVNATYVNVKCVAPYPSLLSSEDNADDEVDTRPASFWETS
Sequence (Q96SW2 whole entry partner): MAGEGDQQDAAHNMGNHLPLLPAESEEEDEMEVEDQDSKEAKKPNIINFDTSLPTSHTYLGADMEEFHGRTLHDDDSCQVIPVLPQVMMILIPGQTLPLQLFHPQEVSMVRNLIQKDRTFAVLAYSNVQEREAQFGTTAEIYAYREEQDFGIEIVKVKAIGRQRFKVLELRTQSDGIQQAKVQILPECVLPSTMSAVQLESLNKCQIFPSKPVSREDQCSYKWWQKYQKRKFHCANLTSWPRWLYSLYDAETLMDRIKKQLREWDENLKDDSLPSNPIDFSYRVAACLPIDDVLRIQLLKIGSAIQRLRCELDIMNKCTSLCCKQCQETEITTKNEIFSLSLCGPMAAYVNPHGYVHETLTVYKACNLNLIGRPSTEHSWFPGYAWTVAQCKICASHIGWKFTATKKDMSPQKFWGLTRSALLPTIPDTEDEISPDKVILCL
assay: PROTAC activity at c-Met/CRBN in human A549 cells assessed as induction of c-Met degradation at 100 nM incubated for 24 hrs by Western blotting analysis relative to control
Format: cell-based
Calls of active or inactive are those of the source. The calls are words filed in the database; no cut-off is given here.
experimental-endpoint: Activity

1. COc1ccc(C(=O)N2CC3CN(C(=O)CN4CCC(COc5cnc(-c6cccc(Cn7nc(-c8cccc(C#N)c8)ccc7=O)c6)nc5)CC4)CC3C2)cc1N1CCC(=O)NC1=O (configuration not stated)    inactive
2. COc1ccc(C(=O)N2CCC3(CCN(C(=O)CCCCCN4CCC(COc5cnc(-c6cccc(Cn7nc(-c8cccc(C#N)c8)ccc7=O)c6)nc5)CC4)CC3)CC2)cc1N1CCC(=O)NC1=O    inactive
3. CC(C)Cc1ccc([C@H](C)C(=O)NCCCCC(=O)N2CCC(COc3cnc(-c4cccc(Cn5nc(-c6cccc(C#N)c6)ccc5=O)c4)nc3)CC2)cc1    inactive
4. COc1ccc(C(=O)N2CCC3(CCN(C(=O)CN4CCC(COc5cnc(-c6cccc(Cn7nc(-c8cccc(C#N)c8)ccc7=O)c6)nc5)CC4)CC3)CC2)cc1N1CCC(=O)NC1=O    inactive
5. N#Cc1cccc(-c2ccc(=O)n(Cc3cccc(-c4ncc(OCC5CCN(C(=O)CCCCNC(=O)C6CC7C=CC6C7)CC5)cn4)c3)n2)c1 (configuration not stated)    inactive
6. COc1ccc(C(=O)NCCCCN2CCC(COc3cnc(-c4cccc(Cn5nc(-c6cccc(C#N)c6)ccc5=O)c4)nc3)CC2)cc1N1CCC(=O)NC1=O    inactive
7. N#Cc1cccc(-c2ccc(=O)n(Cc3cccc(-c4ncc(OCC5CCN(C(=O)CCCCNC(=O)CC67C[C@H]8C[C@@H](C6)C[C@@H](C7)C8)CC5)cn4)c3)n2)c1    inactive
8. COc1ccc(C(=O)N2CCN(C(=O)CN3CCC(COc4cnc(-c5cccc(Cn6nc(-c7cccc(C#N)c7)ccc6=O)c5)nc4)CC3)CC2)cc1N1CCC(=O)NC1=O    inactive
9. COc1ccc(C(=O)N2CC3CC(CN(C(=O)CN4CCC(COc5cnc(-c6cccc(Cn7nc(-c8cccc(C#N)c8)ccc7=O)c6)nc5)CC4)C3)C2)cc1N1CCC(=O)NC1=O    inactive
10. N#Cc1cccc(-c2ccc(=O)n(Cc3cccc(-c4ncc(OCC5CCN(C(=O)C(C6CCCCC6)C6CCCCC6)CC5)cn4)c3)n2)c1    inactive
11. COc1ccc(C(=O)NCCCCCCN2CCC(COc3cnc(-c4cccc(Cn5nc(-c6cccc(C#N)c6)ccc5=O)c4)nc3)CC2)cc1N1CCC(=O)NC1=O    inactive
12. CC(C)Cc1ccc([C@H](C)C(=O)N2CCC(COc3cnc(-c4cccc(Cn5nc(-c6cccc(C#N)c6)ccc5=O)c4)nc3)CC2)cc1    inactive
